# Test system: SN12C renal
# assay overview: NCI tumour cell line growth inhibition, 48 h; in the data active = GI50 below about 0.43 µM; inactive = the rest
Mark one answer only. Choices: 1.0 (active), 0.0 (inactive)

{"substance smiles": "COc1cc2ncn(-c3cc(O[C@H](C)c4ccccc4Cl)c(C(N)=O)s3)c2cc1OC", "label value": 1.0}
{"substance smiles": "CCOc1nc(-c2ccccc2)cc2c(O)c(C(=O)N/N=C/c3ccc(O)cc3O)[nH]c(=O)c12", "label value": 0.0}

Let's switch to this compound now.
query: Could you kindly confirm the outcome this assay logged for `C(#Cc1cnccn1)/C=C\C#Cc1cnccn1` ?
result: 0.0

* * *

# Test system: UO-31 renal
# assay overview: NCI tumour cell line growth inhibition, 48 h
Reported TGI values follow for various compounds

Answered cases to consult:
{"compound": "Cc1cc(O)c(C=O)c2c1C(=O)Oc1c(CO)c(O)c3c(c1O2)C(O)OC3=O (stereo not given)", "TGI": "> 100 µM"}
{"compound": "Fc1cnc(NC2CC2)nc1-c1cnc2ccc(N3CCOCC3)cn12", "TGI": "11.1 µM"}

query: Record request: TGI value, item O=C1C2C(C(=O)N1c1ccccc1)C1(Br)c3ccccc3C2(Br)C2C(=O)N(c3ccccc3)C(=O)C21 (stereo not given)
result: > 31.6 µM

query: Record request: TGI value, item `O=C1C=CC(=O)N1C1CCCCCCCCCCC1`
result: 14.2 µM

query: Record request: TGI value, item Cc1ccc([N+](=O)[O-])cc1S(=O)(=O)Nc1ccc(C2=NN(C(=O)c3ccccc3)C(c3ccccc3)C2)cc1 (stereo not given)
result: > 100 µM
